PROCEDURE TEXT: Cytotoxicity assay (MTT) in MRC‐5 cells
DETAILS: human
QUANTITY MEASURED: CC50 at 6 day

[in] Entry under review: Cc1cncc(C(=O)N2C[C@H]3CC[C@@H](C2)N3[C@H](c2cccc(F)c2)c2cn(CCc3ccsc3)nn2)c1 [Compound C5N17B] . Reported CC50 at 6 day?
[out] > 100 µM

---

# Lookup of reported IC50 keyed by entry
TARGET UNDER TEST: UniProt P0DTD1
PROCEDURE TEXT: SARS‐CoV‐2 main protease enzymatic assay (FRET inhibitor screening kit)
Type: biochemical

Known results for molecules:
MOLECULE | READING
Cc1cncc(C(=O)N2C[C@H]3CC[C@@H](C2)N3[C@H](c2cccc(F)c2)c2cn(CCc3ccsc3)nn2)c1 [Compound C5N17B] | 120 nM
Cc1cncc(C(=O)N2C[C@H]3CC[C@@H](C2)N3C(c2cccc(F)c2)c2cn(C[S+]([O-])c3ccccc3)nn2)c1 (stereo partly drawn) [Compound C5N41] | 243 nM

Attention now turns to another entry.
[in] Provide value of IC50 for this record tested with UniProt P0DTD1: O=C(c1cccnc1)N1C[C@H]2CC[C@@H](C1)N2C(c1cccc(F)c1)c1cn(CCN2C(=O)c3ccccc3C2=O)nn1 (stereo partly drawn) [Compound C6N21]
[out] 200 nM

---

PROCEDURE TEXT: in vitro
DETAILS: human, CC50 (Table 3), Calu‐3 cells
QUANTITY MEASURED: CC50 at 2 day

Some compounds with recorded CC50 at 2 day:
COMPOUND | CC50 at 2 day
Cc1cncc(C(=O)N2C[C@H]3CC[C@@H](C2)N3[C@H](c2cccc(F)c2)c2cn(CCc3ccsc3)nn2)c1 [Compound C5N17B] | > 100 µM
Cc1cncc(C(=O)N2C[C@H]3CC[C@@H](C2)N3C(c2cccc(F)c2)c2cn(CCc3ccsc3)nn2)c1 (stereo partly shown) | > 100 µM
CC(C)(C)[C@H](NC(=O)C(F)(F)F)C(=O)N1C[C@H]2[C@@H]([C@H]1C(=O)N[C@H](C#N)C[C@@H]1CCNC1=O)C2(C)C [Nirmatrelvir, reference compound] | > 100 µM

Now examine the next entry.
[in] Item under review: Cc1cncc(C(=O)N2C[C@H]3CC[C@@H](C2)N3C(c2cccc(F)c2)c2cccc(F)c2)c1 [AA‐625, reference compound] . Reported CC50 at 2 day?
[out] 42.9 µM

---

PROCEDURE TEXT: In vivo pharmacokinetic study in male ICR mice (compound alone)
DETAILS: male, ICR, mouse, plasma, iv, 2 mg/kg, IV 2 mg/kg, individual mice 1#-3#; read-out: Vz
QUANTITY MEASURED: Vd (L/kg)
# number only, unit L/kg dropped from output

[in] Recorded Vd of Cc1cncc(C(=O)N2C[C@H]3CC[C@@H](C2)N3[C@H](c2cccc(F)c2)c2cn(CCc3ccsc3)nn2)c1 [Compound C5N17B] , please.
[out] 3.82

---

PROCEDURE TEXT: in vivo
DETAILS: male, ICR, mouse, po, 10 mg/kg, Plasma concentration (Calculated Concentration), C5N17B+Ritonavir, PO 10 mg/kg, mouse plasma, 2 h, individual mice
QUANTITY MEASURED: concentration at 2 h (ng/mL)
Please respond with the number in ng/mL and leave the unit unwritten.

[in] I have this compound here, Cc1cncc(C(=O)N2C[C@H]3CC[C@@H](C2)N3[C@H](c2cccc(F)c2)c2cn(CCc3ccsc3)nn2)c1 [Compound C5N17B] , and I need its recorded concentration at 2 h.
[out] 1910

---

Tested on: MRC‐5 cells
DETAILS: human
QUANTITY MEASURED: CC50

[in] Field request: CC50 | item: CC(C)(C)[C@H](NC(=O)C(F)(F)F)C(=O)N1C[C@H]2[C@@H]([C@H]1C(=O)N[C@H](C#N)C[C@@H]1CCNC1=O)C2(C)C [Nirmatrelvir, reference compound]
[out] > 100 µM

---

PROCEDURE TEXT: In vivo pharmacokinetic study in male ICR mice (compound alone)
DETAILS: male, ICR, mouse, plasma, iv, 2 mg/kg, IV 2 mg/kg, 0.5 h, individual mice; read-out: plasma concentration
QUANTITY MEASURED: concentration at 0.5 h (µg/mL)
The reply should contain only the number, in µg/mL.

[in] Could you tell me which concentration at 0.5 h is on file for Cc1cncc(C(=O)N2C[C@H]3CC[C@@H](C2)N3[C@H](c2cccc(F)c2)c2cn(CCc3ccsc3)nn2)c1 [Compound C5N17B] ?
[out] 0.0161

---

PROCEDURE TEXT: In vivo pharmacokinetic study in male ICR mice (compound alone)
DETAILS: male, ICR, mouse, plasma, iv, 2 mg/kg, IV 2 mg/kg, individual mice 1#-3#; read-out: C0
QUANTITY MEASURED: C0 (ng/mL)
Reply with just the number (in ng/mL).

[in] State the recorded C0 for this entry: Cc1cncc(C(=O)N2C[C@H]3CC[C@@H](C2)N3[C@H](c2cccc(F)c2)c2cn(CCc3ccsc3)nn2)c1 [Compound C5N17B]
[out] 671

---

System: SARS‐CoV‐2 (hCoV‐19/Korea/KCDC06/2020, wild type)
PROCEDURE TEXT: microbe, parasite or virus in culture
Assay type: cell-based
DETAILS: Calu‐3 cells, with CP‐100356; read-out: EC50 ± SD, Calu‐3 cells, with P‐gp inhibitor
QUANTITY MEASURED: pEC50
Keep in mind that pEC50 stands for -log10 of concentration in molar terms.

[in] So what does the record say about pEC50 for Cc1cncc(C(=O)N2C[C@H]3CC[C@@H](C2)N3C(c2cccc(F)c2)c2cn(CC(N)=O)nn2)c1 (stereo partly shown) [Compound C5N58] ?
[out] 6.47

---

PROCEDURE TEXT: In vivo pharmacokinetic study in male ICR mice (compound alone)
DETAILS: male, ICR, mouse, plasma, po, 10 mg/kg, PO 10 mg/kg, 0.50 h, mean of mice 4#-6#; read-out: plasma concentration, Mean
Method: The pharmacokinetics profile of the newly developed antiviral compound C5N17B was subsequently evaluated in male ICR mice that were free from specific pathogens, aiming to assess its potential for therapeutic application in vivo. A total of six male ICR mice were randomly assigned to two groups. […] All samples were quantified using an LC‐MS/MS‐AR Triple Quad 5500+ (SCIEX, USA) and the ExionLC liquid phase system. […] The pharmacokinetic parameters were calculated by WinNolin 8.2 software.
QUANTITY MEASURED: concentration at 0.5 h (ng/mL)
Reply numerically in ng/mL, unit not repeated.

[in] # lookup: concentration at 0.5 h of Cc1cncc(C(=O)N2C[C@H]3CC[C@@H](C2)N3[C@H](c2cccc(F)c2)c2cn(CCc3ccsc3)nn2)c1 [Compound C5N17B]
[out] 8.28

---

PROCEDURE TEXT: In vivo pharmacokinetic study in male ICR mice (compound alone)
DETAILS: male, ICR, mouse, plasma, iv, 2 mg/kg, IV 2 mg/kg, 5 min, individual mice; read-out: plasma concentration
QUANTITY MEASURED: concentration at 5 min (ng/mL)
Respond numerically; units are ng/mL and should not be typed.

[in] Sample Cc1cncc(C(=O)N2C[C@H]3CC[C@@H](C2)N3[C@H](c2cccc(F)c2)c2cn(CCc3ccsc3)nn2)c1 [Compound C5N17B] — what was its concentration at 5 min?
[out] 233

---

PROCEDURE TEXT: in vivo
DETAILS: male, ICR, mouse, po, 10 mg/kg, AUC0-∞, Mean, C5N17B+Ritonavir, PO 10 mg/kg, mean of 3 mice
QUANTITY MEASURED: AUC(0-inf) (ng·h/mL)
Report as a plain number; the unit ng·h/mL is understood.

[in] I am curious: what AUC(0-inf) value has been reported for Cc1cncc(C(=O)N2C[C@H]3CC[C@@H](C2)N3[C@H](c2cccc(F)c2)c2cn(CCc3ccsc3)nn2)c1 [Compound C5N17B] ?
[out] 14200

---

PROCEDURE TEXT: In vivo pharmacokinetic study in male ICR mice (compound alone)
DETAILS: male, ICR, mouse, plasma, iv, 2 mg/kg, IV 2 mg/kg, 5 min, mean of mice 1#-3#; read-out: Plasma concentration, Mean
QUANTITY MEASURED: concentration at 5 min (ng/mL)
Give just the number in ng/mL; leave the unit off.

[in] Which value of concentration at 5 min has been reported for Cc1cncc(C(=O)N2C[C@H]3CC[C@@H](C2)N3[C@H](c2cccc(F)c2)c2cn(CCc3ccsc3)nn2)c1 [Compound C5N17B] in the records?
[out] 237

---

PROCEDURE TEXT: In vivo pharmacokinetic study in male ICR mice (compound alone)
DETAILS: male, ICR, mouse, plasma, iv, 2 mg/kg, IV 2 mg/kg, 5 min (5 min), mouse plasma, individual mice 1#-3#; read-out: Plasma concentration (Calculated Concentration)
QUANTITY MEASURED: concentration at 5 min (ng/mL)
State the answer as a number, implicitly in ng/mL.

[in] Report concentration at 5 min for Cc1cncc(C(=O)N2C[C@H]3CC[C@@H](C2)N3[C@H](c2cccc(F)c2)c2cn(CCc3ccsc3)nn2)c1 [Compound C5N17B] please.
[out] 292
